assay: in vitro; settings: rat, gh3-tre-luc cells, AC50 (uM) modified / 1000
Below, each entry is listed alongside its reported CC50 at 24 h.

Examples with answers:
CC1(C)S[C@@H]2[C@H](NC(=O)[C@H](NC(=O)N3CCNC3=O)c3ccccc3)C(=O)N2[C@H]1C(=O)O [Azlocillin sodium]    > 20 µM
Clc1cc(C(Cl)(Cl)Cl)cnc1Cl    > 90 µM
CCCCN    > 50 µM

// query CC50 at 24 h value for entry c1ccc2c(c1)ccc1cc3c(ccc4ccccc43)cc12 > 50 µM

What does the record list as CC50 at 24 h for C[C@@H]1C(=O)NC2=Nc3cccc(Cl)c3CN21 ? > 50 µM

----------
experiment: in vitro; conditions: rat, gh3-tre-luc cells, AC50 (uM) modified / 1000
Where a name gives a salt, the structure may show the parent alone.
Attribute Measured: CC50 at 24 h

Below, each entry is followed by its recorded CC50 at 24 h result.
CCCCCCC(=O)OCC [Ethyl heptanoate]    > 90 µM
c1ccc2c(c1)OCC(CN1CCCCC1)O2 (centres unmarked)    > 50 µM
C=CC(C)(O)CCC=C(C)C (centres unmarked)    > 90 µM
CC(=O)CC(C)(C)O    > 90 µM

// CC50 at 24 h lookup, key: CNC(C)CCC=C(C)C (centres unmarked) [Isometheptene hydrochloride] > 50 µM

----------
assay: in vitro; conditions: rat, gh3-tre-luc cells, AC50 (uM) modified / 1000
Counter-ions that a name gives are not always drawn.
Attribute Measured: CC50 at 24 h

Below, 3 compounds whose answers are already recorded.
O=C(O)CNCC(=O)O    > 5 µM
CCCCCc1cccc(=O)o1    > 90 µM
COc1ccc(CCNCC(O)COc2cccc(C)c2)cc1OC (centres unmarked) [Bevantolol hydrochloride]    20.6 µM

Item under review: COc1cnc(NS(=O)(=O)c2ccc(N)cc2)nc1 . Reported CC50 at 24 h? > 20 µM

Query (compound): CC(C)(C)C(=O)CC(=O)C(C)(C)C ; field requested: CC50 at 24 h > 100 µM

Form field: reported CC50 at 24 h of NC(=O)Nc1ccccc1 > 90 µM

// returns reported CC50 at 24 h for input COC(=O)CCCCC(=O)O [Methyl hexanedioate] > 90 µM

// lookup CC50 at 24 h for CCCCCOc1ccc(C2SC(=O)NC2=O)cc1OCC (centres unmarked) > 50 µM

Look at this compound and give its reported CC50 at 24 h. CC(C)CCOCc1ccccc1 > 90 µM

Look up CC50 at 24 h for this compound: O=c1[nH]c(=O)n([C@H]2CCCO2)cc1F > 90 µM

Given the compound CCN(Cc1cccnc1)C(=O)c1cccc(Cl)c1[C@]1(C)C(=O)N(Cc2ccc(OC)cc2OC)c2ccc(Cl)cc21 , what is its reported CC50 at 24 h? 9.39 µM

----------
experiment: in vitro; details: rat, gh3-tre-luc cells, AC50 (uM) modified / 1000
Each entry below lists one item and its recorded CC50 at 24 h value.
Express the result in µM but write the number alone.

Bench note: what CC50 at 24 h did Oc1c(Br)cc(Br)c2cccnc12 show? 24.9

Return reported CC50 at 24 h; argument: CCCCCCCCN[C@@H](C)[C@H](O)c1ccc(SC(C)C)cc1 (racemic) 4.84

Endpoint output: CC50 at 24 h of CC(C)CC(C)Nc1ccc(Nc2ccccc2)cc1 (stereo not drawn) . Value? 39

// lookup CC50 at 24 h for CCCCCCCCCCCCCC[N+](C)(C)Cc1ccccc1 10.5

----------
assay: in vitro; details: rat, gh3-tre-luc cells, AC50 (uM) modified / 1000
Attribute Measured: CC50 at 24 h

Worked examples follow.
OCC1(O)OC[C@@H](O)[C@@H](O)[C@@H]1O (stereo partly shown)    > 50 µM
C#CCC(Cc1cnc2nc(N)nc(N)c2n1)c1ccc(C(=O)N[C@@H](CCC(=O)O)C(=O)O)cc1 (stereo partly shown) [Pralatrexate]    > 50 µM
Cc1cccc(Nc2ncccc2C(=O)O)c1C    > 50 µM
NC1CCN(c2nc3c(cc2F)c(=O)c(C(=O)O)cn3-c2ccc(F)cc2F)C1 (stereo not shown)    > 50 µM
CC1(C)S[C@@H]2[C@H](NC(=O)C(C(=O)O)c3ccsc3)C(=O)N2[C@H]1C(=O)O (stereo partly shown) [Ticarcillin disodium]    > 50 µM

Give the measured CC50 at 24 h of CCCCC(CC)CNCC(CC)CCCC (stereo not shown) . > 90 µM

Returns the measured CC50 at 24 h for the input compound. Input: CC(C)C1(C)N=C(c2nc3ccccc3cc2C(=O)O)NC1=O (stereo not shown) > 90 µM

# get_value(readout='CC50 at 24 h', item= CCOc1ccccc1O ) > 90 µM

// returns reported CC50 at 24 h for input COc1ccc(-c2cc(=S)ss2)cc1 > 50 µM

Looking for the measured CC50 at 24 h of O=C(Cl)c1ccccc1F [2-Fluorobenzoyl chloride] , can you help? > 90 µM

Requested field: CC50 at 24 h. Item: CCCCc1ccc2ccccc2c1S(=O)(=O)O > 90 µM

----------
assay: in vitro; conditions: rat, gh3-tre-luc cells, AC50 (uM) modified / 1000
Attribute Measured: CC50 at 24 h

These solved cases illustrate the format of a correct answer.
CC(C)OB(OC(C)C)OC(C)C [Triisopropyl orthoborate]    > 90 µM
O=C(O)/C=C/c1ccc(/C=C/C(=O)O)cc1 [3,3'-(1,4-Phenylene)bis-2-propenoic acid]    > 50 µM
CCCCCCCCCCCCC [Tridecane]    > 90 µM
CCOC(=O)c1ccccc1O [Ethyl salicylate]    > 50 µM
CC(=O)c1ccc2c(c1)CCCC2 [6-Acetyl-1,2,3,4-tetrahydronaphthalene]    > 90 µM
Clc1cccc(C(Cl)(Cl)Cl)n1 [Nitrapyrin]    > 90 µM
C=C(CC(=O)O)C(=O)O [Methylenebutanedioic acid]    > 90 µM

Note: attention shifts to another entry.
Recorded CC50 at 24 h for Cc1ccc(O)c(C(=O)c2ccccc2)c1 [2-Hydroxy-5-methylbenzophenone] , please? > 90 µM

----------
Item-by-item account of CC50 at 24 h
assay: in vitro; conditions: rat, gh3-tre-luc cells, AC50 (uM) modified / 1000
Where a name gives a salt, the structure may show the parent alone.

Reference set (5 entries):
CCC(=O)Nc1ccc(Cl)c(Cl)c1    > 90 µM
CCCCC(CC)COC(=O)c1ccccc1C(=O)O (stereo not drawn)    > 90 µM
CCCCCCCCCCCCOC(=O)c1ccc(O)cc1    26 µM
CCC(C)(C)c1cc(O)c(C(C)(C)CC)cc1O    53.8 µM
Cc1ccc2oc(CN(Cc3ccccc3)C(=O)Nc3c(F)cc(F)cc3F)c(-c3ccc(Cl)cc3)c2c1    > 80 µM

Request the reported CC50 at 24 h associated with CC(=O)Oc1cc(C(C)C)c(OCCN(C)C)cc1C [Moxisylyte hydrochloride] > 20 µM

Return reported CC50 at 24 h; argument: NS(=O)(=O)c1ccccc1OC(F)(F)F [2-(Trifluoromethoxy)benzenesulfonamide] > 90 µM

Could you tell me which CC50 at 24 h is on file for Oc1c(Cl)ccc(Cl)c1Cl ? > 90 µM

Could you share which CC50 at 24 h value was measured for CC(C)CC(C)(c1ccc(O)cc1)c1ccc(O)cc1 ? 41.6 µM

----------
assay: in vitro; settings: rat, gh3-tre-luc cells, AC50 (uM) modified / 1000
Attribute Measured: CC50 at 24 h

In the examples that follow, each entry is paired with its recorded CC50 at 24 h.
CCCCOC(=O)[C@@H](C)Oc1ccc(Oc2ccc(C(F)(F)F)cn2)cc1    > 90 µM
CCC(Cc1c(I)cc(I)c(O)c1I)C(=O)O (centres unmarked)    > 50 µM
Nc1cccc(N)n1    > 90 µM
CCOC(=O)OC1=C(c2cc(C)ccc2C)C(=O)N[C@]12CC[C@@H](OC)CC2    > 90 µM
CC(=O)O[C@H]1C[C@@H]2CC[C@@H]3[C@H](CC[C@@]4(C)[C@H]3C[C@H](N3CC[N+](C)(C)CC3)[C@@H]4OC(C)=O)[C@@]2(C)C[C@@H]1N1CC[N+](C)(C)CC1 [Pipecuronium bromide]    > 50 µM

Please find the next compound below.
Tell me the measured CC50 at 24 h of Nc1cccc([N+](=O)[O-])c1 , please. > 90 µM

----------
Each entry below carries its reported CC50 at 24 h.
test: in vitro; conditions: rat, gh3-tre-luc cells, AC50 (uM) modified / 1000
Where a name gives a salt, the structure may show the parent alone.

CC[C@H](C)C(=O)O[C@H]1C[C@H](O)C=C2C=C[C@H](C)[C@H](CC[C@@H](O)C[C@@H](O)CC(=O)O)[C@H]21 [Pravastatin sodium]    > 90 µM
Cc1cccc(C(C)c2cnc[nH]2)c1C (stereo not drawn) [Medetomidine hydrochloride]    > 50 µM
CCCCCCCCCCCCCCCCCC(=O)OCCCCCCCCCCCCCC(C)C [Isocetyl stearate]    > 90 µM
CCOC(=O)C(C#N)=C(c1ccccc1)c1ccccc1 [Ethyl 2-cyano-3,3-diphenylacrylate]    > 90 µM
C1CN(P2(N3CC3)=NP(N3CC3)(N3CC3)=NP(N3CC3)(N3CC3)=N2)CCO1 (stereo not drawn)    > 50 µM
CC(C)(CC(=O)O)C(=O)O    > 90 µM
Nc1cc(C(=O)O)ccc1Cl    > 90 µM
C=C(C)CNCC    > 90 µM

Fill in: CC50 at 24 h of C[C@H]1C(=O)O[C@@H]2CCN3CC=C(COC(=O)[C@](C)(O)[C@]1(C)O)[C@H]23 is ___ > 90 µM

What value of CC50 at 24 h has been reported for the following molecule? Clc1cc(Cl)c(Cl)c(Cl)c1 > 90 µM

Return reported CC50 at 24 h; argument: CCc1c(C(=O)NN2CCCCC2)nn(-c2ccc(Cl)cc2Cl)c1-c1ccc(Br)cc1 12.3 µM

Quick one: CC50 at 24 h for C=C(C)C(=O)OCCOCC [2-Ethoxyethyl methacrylate] ? > 90 µM

I'd like to know its CC50 at 24 h. The molecule in question is COS(C)(=O)=O [Methyl methanesulfonate] > 100 µM
